Reference source for all entries: PubChem BioAssay (NCI)

Assay: NCI Yeast Anticancer Drug Screen. Data for the bub3 strain (AID 167)
Conditions: S. cerevisiae bub3 mutant strain, at 50.0 µM, active compounds read high
This is part of a sample that, as a whole, favours compounds with a hit. Of some 79,000 tested, about 15% had one in any assay.
Response key: Met means growth inhibition >= 80%; Not met means growth inhibition < 80%.

Enquiry: Textbook exercise: given the entry Nc1ccc2c3c(cccc13)C(=O)N(CCCBr)C2=O , state whether its growth inhibition is greater than or equal to 80%.
Return: Not met

Enquiry: Textbook exercise: given the entry CC(=O)OC1CCC2(C)C(CCC3C4CCC(OC(C)=O)C4(C)CCC32)O1 (configuration not stated) , state whether its growth inhibition is greater than or equal to 80%.
Return: Not met

Enquiry: Textbook exercise: given the entry CCCCCCCCCCCCCCCCCC(=O)OC(Cc1ccccc1)C(=O)O (configuration not stated) , state whether its growth inhibition is greater than or equal to 80%.
Return: Not met

Enquiry: Textbook exercise: given the entry COc1cc(OC)c(OC)cc1/C=C\c1ccnc2ccccc12 , state whether its growth inhibition is greater than or equal to 80%.
Return: Not met

Enquiry: Textbook exercise: given the entry CCCCCCCCCCCCc1ccc(S(=O)(=O)O)cc1.[Cu+2] , state whether its growth inhibition is greater than or equal to 80%.
Return: Not met

Enquiry: Textbook exercise: given the entry CCOC(=O)C1=C(C(=O)c2ccc(OC)cc2)C(c2c(Cl)cccc2Cl)C(C(=O)c2ccc(OC)cc2)=C(C(=O)OCC)N1 , state whether its growth inhibition is greater than or equal to 80%.
Return: Met

Enquiry: Textbook exercise: given the entry COC(=O)c1nnn(-c2ccc(S(N)(=O)=O)cc2)c1N , state whether its growth inhibition is greater than or equal to 80%.
Return: Not met

Enquiry: Textbook exercise: given the entry CC(CCc1nc2ccccc2s1)(c1ccc(O)cc1)c1ccc(O)cc1 , state whether its growth inhibition is greater than or equal to 80%.
Return: Met

Enquiry: Textbook exercise: given the entry Nc1cc2ccccc2cc1Br , state whether its growth inhibition is greater than or equal to 80%.
Return: Not met

Enquiry: Textbook exercise: given the entry COc1ccc2cc(C(C)=O)c3ccccc3c2c1 , state whether its growth inhibition is greater than or equal to 80%.
Return: Not met

Enquiry: Textbook exercise: given the entry CC1(C)C(c2ccccc2)=Nc2ccccc21 , state whether its growth inhibition is greater than or equal to 80%.
Return: Met

* * *

Assay: NCI Yeast Anticancer Drug Screen. Data for the sgs1 mgt1 strain (AID 161);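 further: 0% = growth of cultures given vehicle only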
Details: S. cerevisiae sgs1 mgt1 strain, at 5.0 µM (retest, dose inferred, filed as 0.5), active compounds read high
This is part of a sample that, as a whole, favours compounds with a hit. Of some 79,000 tested, about 15% had one in any assay.
I'd appreciate it if you could supply growth inhibition values for the items below.
# unit: % | format: bare number

Enquiry: Report growth inhibition for Nc1cc(F)c2c(c1)Cc1ccccc1-2 please.
Return: -6

Enquiry: Report growth inhibition for CN(C)C(=Nc1nc(=[N+](C)C)ss1)N(C)C please.
Return: 8

Enquiry: Report growth inhibition for NC(=O)SCC(=O)NNc1ccccc1 please.
Return: 5

Enquiry: Report growth inhibition for c1ccc2c(c1)CC1=C(O2)c2ccccc2OC1 please.
Return: 5

Enquiry: Report growth inhibition for COC(=O)CSC(=S)N1CCOCC1 please.
Return: 4

Enquiry: Report growth inhibition for Clc1ccc(CN2CCCN(Cc3ccc(Cl)cc3)C2c2cc3ccccc3c3ccccc23)cc1 please.
Return: 38

Enquiry: Report growth inhibition for O=C(CON1C(=O)c2ccccc2C1=O)c1ccccc1 please.
Return: 6

Enquiry: Report growth inhibition for NCC(=O)OCN1C(=O)C2C3C=CC(C2C1=O)C1C2C(=O)N(COC(=O)CN)C(=O)C2C31 (stereo not drawn) please.
Return: 25

Enquiry: Report growth inhibition for C=CCOC(=O)c1ccc(C(=O)OCC=C)cc1 please.
Return: -1

Enquiry: Report growth inhibition for CN(C)Cc1c(O)ccc2ccccc12 please.
Return: 2

Enquiry: Report growth inhibition for O=C1C=C(O)c2ccccc2C1=O.[Ag] please.
Return: 99

Enquiry: Report growth inhibition for Cc1nc2ccccc2cc1CCl please.
Return: -51

Enquiry: Report growth inhibition for Nc1ccc2c(ccc3ccc4ccccc4c32)c1 please.
Return: -8
